The origin of these recorded values is ChEMBL document CHEMBL4052714.

This listing pairs molecules with measured MIC.
# System: Staphylococcus aureus
# Procedure Summary: Antibacterial activity against erythromycin-susceptible Staphylococcus aureus ATCC 25923
# Type: functional
// units = µg/mL; emit number, no label

>>> measured("CC[C@H]1OC(=O)[C@H](C)[C@@H](O[C@H]2C[C@@](C)(OC)[C@@H](OC(=O)NCc3cn(Cc4cccc(C)c4)nn3)[C@H](C)O2)[C@H](C)[C@@H](O[C@@H]2O[C@H](C)C[C@H](N(C)C)[C@H]2O)[C@](C)(O)C[C@@H](C)CN(C)[C@H](C)[C@@H](O)[C@]1(C)O")
1

// moving on: another record for MIC
Short answer on Staphylococcus aureus for CC[C@H]1OC(=O)[C@H](C)[C@@H](O[C@H]2C[C@@](C)(OC)[C@@H](OC(=O)NCc3cn(Cc4ccc(Cl)cc4)nn3)[C@H](C)O2)[C@H](C)[C@@H](O[C@@H]2O[C@H](C)C[C@H](N(C)C)[C@H]2O)[C@](C)(O)C[C@@H](C)CN(C)[C@H](C)[C@@H](O)[C@]1(C)O , MIC: 1

----------
# System: Streptococcus pneumoniae
# Procedure Summary: Antibacterial activity against erythromycin-resistant Streptococcus pneumoniae A22072 expressing mefA gene
# Type: functional
Measurement Label: MIC
Kindly format the answer as number then unit.

Solved cases below.
>>> measured("CC[C@H]1OC(=O)[C@H](C)[C@@H](O[C@H]2C[C@@](C)(OC)[C@@H](OC(=O)NCc3cn(Cc4ccccc4C)nn3)[C@H](C)O2)[C@H](C)[C@@H](O[C@@H]2O[C@H](C)C[C@H](N(C)C)[C@H]2O)[C@](C)(O)C[C@@H](C)CN(C)[C@H](C)[C@@H](O)[C@]1(C)O")
"0.5 µg/mL"
>>> measured("CC[C@H]1OC(=O)[C@H](C)[C@@H](O[C@H]2C[C@@](C)(OC)[C@@H](OC(=O)NCc3cn(Cc4c(Cl)cccc4Cl)nn3)[C@H](C)O2)[C@H](C)[C@@H](O[C@@H]2O[C@H](C)C[C@H](N(C)C)[C@H]2O)[C@](C)(O)C[C@@H](C)CN(C)[C@H](C)[C@@H](OC(=O)NCc2ccccc2)[C@]1(C)O")
"0.25 µg/mL"
>>> measured("CC[C@H]1OC(=O)[C@H](C)[C@@H](O[C@H]2C[C@@](C)(OC)[C@@H](OC(=O)NCc3cn(Cc4ccc([N+](=O)[O-])cc4)nn3)[C@H](C)O2)[C@H](C)[C@@H](O[C@@H]2O[C@H](C)C[C@H](N(C)C)[C@H]2O)[C@](C)(O)C[C@@H](C)CN(C)[C@H](C)[C@@H](O)[C@]1(C)O")
"2 µg/mL"

// moving on: another record for MIC
Short answer on Streptococcus pneumoniae for CC[C@H]1OC(=O)[C@H](C)[C@@H](O[C@H]2C[C@@](C)(OC)[C@@H](OC(=O)NCc3cn(Cc4cccc(Cl)c4)nn3)[C@H](C)O2)[C@H](C)[C@@H](O[C@@H]2O[C@H](C)C[C@H](N(C)C)[C@H]2O)[C@](C)(O)C[C@@H](C)CN(C)[C@H](C)[C@@H](O)[C@]1(C)O , MIC: 0.25 µg/mL

----------
This listing pairs compounds with measured Ratio.
# System: Streptococcus pneumoniae
# Procedure Summary: Potency index, ratio of azithromycin MIC to compound MIC for erythromycin-resistant Streptococcus pneumoniae AB11 expressing ermB/mefA gene
# Assay type: functional

Solved cases below.
>>> measured("CC[C@H]1OC(=O)[C@H](C)[C@@H](O[C@H]2C[C@@](C)(OC)[C@@H](OC(=O)NCc3cn(Cc4ccc(Cl)cc4)nn3)[C@H](C)O2)[C@H](C)[C@@H](O[C@@H]2O[C@H](C)C[C@H](N(C)C)[C@H]2O)[C@](C)(O)C[C@@H](C)CN(C)[C@H](C)[C@@H](OC(=O)NCc2ccc(OC)cc2)[C@]1(C)O")
"1024 - 2048"
>>> measured("CC[C@H]1OC(=O)[C@H](C)[C@@H](O[C@H]2C[C@@](C)(OC)[C@@H](OC(=O)NCc3cn(Cc4ccc(Cl)cc4Cl)nn3)[C@H](C)O2)[C@H](C)[C@@H](O[C@@H]2O[C@H](C)C[C@H](N(C)C)[C@H]2O)[C@](C)(O)C[C@@H](C)CN(C)[C@H](C)[C@@H](OC(=O)NCc2ccc(OC)cc2)[C@]1(C)O")
"1024 - 2048"

Looking up CC[C@H]1OC(=O)[C@H](C)[C@@H](O[C@H]2C[C@@](C)(OC)[C@@H](OC(=O)NCc3cn(Cc4c(Cl)cccc4Cl)nn3)[C@H](C)O2)[C@H](C)[C@@H](O[C@@H]2O[C@H](C)C[C@H](N(C)C)[C@H]2O)[C@](C)(O)C[C@@H](C)CN(C)[C@H](C)[C@@H](OC(=O)NCc2ccc(OC)cc2)[C@]1(C)O , I found its Ratio recorded as 1024 - 2048
